experiment: clinical; conditions: human, in vivo, 25 mg, Cmax, mean ± SD, Children ≥6-<12 years (Cohort 2), all bodyweights, RPV 25 mg qd multiple dose, N=10, preliminary analysis
attribute.measured: Cmax (ng/mL)
Give just the numeric value; ng/mL need not be written.

Q: If you can, please state the reported Cmax value of `Cc1cc(/C=C/C#N)cc(C)c1Nc1ccnc(Nc2ccc(C#N)cc2)n1` .
A: 182

###

assay: clinical; details: human, in vivo, 25 mg, AUC24h, mean ± SD, Children ≥6-<12 years (Cohort 2), ≥25 kg only, RPV 25 mg qd multiple dose, N=5, preliminary analysis
attribute.measured: AUC(0-t) (ng·h/mL)
Please state the figure in ng·h/mL; there is no need to write the unit.

Q: Suppose we examine the molecule `Cc1cc(/C=C/C#N)cc(C)c1Nc1ccnc(Nc2ccc(C#N)cc2)n1` ; what AUC(0-t) value has been reported?
A: 2450
